# System: 876862-298-R-J1-PDC complex spheroids, viability % test/control
# experiment notes: Anticancer human tumor 876862-298-R-J1-PDC patient-derived endometrial carcinoma cell line growth inhibition [CLK]
# test context: second compound 0.0316 µM; first compound 0.316 µM; stronger effect = lower value
Rule: measured viability, T/C below 70% gets met; anything equal to or greater than 70% gets not met.

stdin: Does this molecule meet the criterion viability, T/C < 70%? CC1(C)CCC(CN2CCN(c3ccc(C(=O)NS(=O)(=O)c4ccc(NCC5CCOCC5)c([N+](=O)[O-])c4)c(Oc4cnc5[nH]ccc5c4)c3)CC2)=C(c2ccc(Cl)cc2)C1 + CNC(=O)c1ccc(Nc2nc(OC3CCCC3)c3c(-c4ccc5nc(C)oc5c4)c[nH]c3n2)c(OC)c1
stdout: not met

stdin: How about this molecule: CC(CO)NC(=O)c1cc(-c2ccc(Cl)cc2)nn(-c2cnn(C)c2)c1=O (stereo not drawn) + CNC(=O)c1ccc(Nc2nc(OC3CCCC3)c3c(-c4ccc5nc(C)oc5c4)c[nH]c3n2)c(OC)c1
stdout: met

stdin: How about this molecule: CCN1CCN(Cc2ccc(Nc3ncc(F)c(-c4cc(F)c5nc(C)n(C(C)C)c5c4)n3)nc2)CC1 + CNC(=O)c1ccc(Nc2nc(OC3CCCC3)c3c(-c4ccc5nc(C)oc5c4)c[nH]c3n2)c(OC)c1
stdout: met

stdin: How about this molecule: CCCS(=O)(=O)Nc1ccc(F)c(C(=O)c2c[nH]c3ncc(-c4ccc(Cl)cc4)cc23)c1F + CNC(=O)c1ccc(Nc2nc(OC3CCCC3)c3c(-c4ccc5nc(C)oc5c4)c[nH]c3n2)c(OC)c1
stdout: not met

stdin: How about this molecule: COC1C=CCC(C)C(C)S(=O)(=O)NC(=O)c2ccc3c(c2)N(CC2CCC21)CC1(CCCc2cc(Cl)ccc21)CO3 (stereo not drawn) + CN1CCN(c2cc(C(=O)Nc3cc4cc(-c5cnn(C)c5)ccc4cn3)ccn2)CC1
stdout: not met

stdin: How about this molecule: Nc1ccccc1NC(=O)c1ccc(CNC(=O)OCc2cccnc2)cc1 + CNC(=O)c1ccc(Nc2nc(OC3CCCC3)c3c(-c4ccc5nc(C)oc5c4)c[nH]c3n2)c(OC)c1
stdout: not met

###

# Test system: 876862-298-R-J1-PDC complex spheroids, viability % test/control
# experiment notes: Anticancer human tumor 876862-298-R-J1-PDC cell line growth inhibition [CLK]; active = viability on the fitted dose curve at most 10% of control; inactive = the rest;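 also: spheroids exposed to drugs for 7 days before readout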
# test context: second compound 0.1 µM; first compound 0.00949 µM
Could you please pick one outcome from this set? true (active), false (inactive)

Examples with answers:
molecule="C=CC(=O)Nc1cc(Nc2nccc(-c3cn(C)c4ccccc34)n2)c(OC)cc1N(C)CCN(C)C + CNC(=O)c1ccc(Nc2nc(OC3CCCC3)c3c(-c4ccc5nc(C)oc5c4)c[nH]c3n2)c(OC)c1" assigned_category=false
molecule="NC(=O)C(=Cn1cnc(-c2cc(C(F)(F)F)cc(C(F)(F)F)c2)n1)c1cncnc1 + CN1CCN(c2cc(C(=O)Nc3cc4cc(-c5cnn(C)c5)ccc4cn3)ccn2)CC1" assigned_category=false
molecule="NC(=O)C(=Cn1cnc(-c2cc(C(F)(F)F)cc(C(F)(F)F)c2)n1)c1cncnc1 + CNC(=O)c1ccc(Nc2nc(OC3CCCC3)c3c(-c4ccc5nc(C)oc5c4)c[nH]c3n2)c(OC)c1" assigned_category=false
molecule="C=CC(=O)Nc1cc(Nc2nccc(-c3cn(C)c4ccccc34)n2)c(OC)cc1N(C)CCN(C)C + CN1CCN(c2cc(C(=O)Nc3cc4cc(-c5cnn(C)c5)ccc4cn3)ccn2)CC1" assigned_category=false
molecule="CC(C)CC(NC(=O)C(Cc1ccccc1)NC(=O)c1cnccn1)B(O)O (stereo unspecified) + CN1CCN(c2cc(C(=O)Nc3cc4cc(-c5cnn(C)c5)ccc4cn3)ccn2)CC1" assigned_category=true

# evaluate next
stdin: Hi team, can someone confirm the assay call for CC(C)CC(NC(=O)C(Cc1ccccc1)NC(=O)c1cnccn1)B(O)O (stereo unspecified) + CNC(=O)c1ccc(Nc2nc(OC3CCCC3)c3c(-c4ccc5nc(C)oc5c4)c[nH]c3n2)c(OC)c1 ?
stdout: true
